Recorded measurements of normalized growth, one per entry
Experiment: chemical genetic growth profiling, strain panel (AID 1159580);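 also: tested at 20 µM; growth read once vehicle control cultures reached saturation at 30 °C; 1 = growth at the plate median or of vehicle wells; lower values mean less growth of the strain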
Details: S. cerevisiae deletion strains, growth OD, locus YNL322C, strain KRE1 (second series), hits give low values
The whole screen tested about 5,500 compounds, of which about 2,000 (36%) were called active. Inconclusive results (about 18%) are left out. This is one part of the list.
Lab note: write the figure by itself, no unit.

These solved cases illustrate the format of a correct answer.
CC(=O)Oc1cc(OC(C)=O)c2c(c1)O[C@H](c1ccc(OC(C)=O)c(OC(C)=O)c1)[C@H](OC(C)=O)C2 : 0.997
COC(=O)C1=COC(OC2OC(CO)C(O)C(O)C2O)C2C(C)CC(=O)C12 (centres undefined) : 1.03
CCCCCCCCCCC[C@@H](C[C@H]1OC(=O)[C@H]1CCCCCC)OC(=O)[C@@H](CC(C)C)NC=O : 1.03
Cc1[nH]c2ccccc2c1CN(C)C : 1.02
CC(C)NCC(O)COc1cccc2[nH]ccc12 (centres undefined) : 0.994
N=c1ccn2c(n1)OC1C(O)C(CO)OC12 (centres undefined) : 1.01

[Q] Quick one: give measured normalized growth for O=C(O[C@@H]1Cc2c(O)cc(O)cc2O[C@@H]1c1ccc(O)c(O)c1)c1cc(O)c(O)c(O)c1
[A] 1.06

[Q] Name the recorded normalized growth of the compound listed here: Cc1ccc(S(=O)(=O)NC(=O)NN2CCCCCC2)cc1
[A] 0.965

[Q] Retrieve normalized growth measured for O=C(O[C@@H]1Cc2c(O)cc(O)cc2O[C@@H]1c1cc(O)c(O)c(O)c1)c1cc(O)c(O)c(O)c1 and print it.
[A] 1.04

[Q] Supply normalized growth value. Item: COc1cc([C@@H]2c3cc4c(cc3C(OC3O[C@@H]5COC(C)O[C@H]5[C@H](O)[C@H]3O)C3COC(=O)[C@@H]32)OCO4)cc(OC)c1O (some centres undefined)
[A] 1.03

[Q] Determine its reported normalized growth: C[C@]12CCC(=O)C=C1C=CC1C2CC[C@@]2(C)C1CC[C@@]2(O)CCC(=O)O (some centres undefined)
[A] 1.02

[Q] Retrieve normalized growth measured for C[C@]12CCC(=O)C=C1C=CC1C2CC[C@@]2(C)C1CC[C@@]21CCC(=O)O1 (some centres undefined) and print it.
[A] 0.991

[Q] Determine its reported normalized growth: O=C(O)c1cc2cc(F)ccc2[nH]1
[A] 0.99

[Q] Please look at this compound and report its normalized growth: COc1ccc(-c2coc3cc(O)ccc3c2=O)c(OC)c1
[A] 1.01

[Q] Quickly give me recorded normalized growth for CC(=O)O[C@H]1C[C@@H](OC(C)=O)C(C)(C)C2CC(=O)[C@]3(C)C(CC[C@@]4(C)[C@H](C(=O)O)OC(=O)C5OC543)[C@]21C (some centres undefined)
[A] 1.01

[Q] Give me measured normalized growth, please, for this compound: COC(=O)[C@@H]1OC(=O)C2OC23[C@@]1(C)CCC1[C@]2(C)C(C[C@H](O)[C@]13C)C(C)(C)[C@H](OC(C)=O)C[C@@H]2OC(C)=O (some centres undefined)
[A] 1.02

[Q] Assign normalized growth to the following record: CCCCCCCCC(=O)NCc1ccc(O)c(OC)c1
[A] 0.998

[Q] Specify normalized growth for CC(=O)Oc1cc(OC(C)=O)c2c(c1)O[C@H](c1ccc(OC(C)=O)c(OC(C)=O)c1)[C@@H](OC(C)=O)C2 and stop.
[A] 0.997

[Q] Supply reported normalized growth belonging to this compound: COc1cc([C@@H]2c3cc4c(cc3[C@@H](O)C3COC(=O)C32)OCO4)cc(OC)c1O (some centres undefined)
[A] 0.991
